Every entry's value here was drawn from paper PMC3804352.

experiment: Metabolism by human liver S9 fraction; type: in vitro ADME; conditions: human, human liver S9 fraction, CLint, S9 fraction with UDPGA
value_type: CLint scaled at 24 h, 10 µM (mL/min/kg)

molecule: CC1=C2Cc3cc(ccc3O)C(=O)O[C@H](C(C)(C)Br)CC[C@](C)(O)[C@H](Br)CC[C@]2(C)[C@@H](Br)CC1 [compound 1, bromophycolide A]
value_type: CLint scaled at 24 h, 10 µM
units_label: mL/min/kg
endpoint_value: 1.1
